B1: Intersectin-1, residues 909 to 971; numbered along this chain, Q15811 (parent)
chain: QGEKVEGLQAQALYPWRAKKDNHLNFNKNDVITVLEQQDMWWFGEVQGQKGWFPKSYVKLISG

variants of: B1; test: abundance fitness (aPCA) (normalised: wild type 0, dead -1); higher = more abundant; growth selection in yeast, the domain comes from the species named; settings: Homo sapiens
Record 1.0 whenever abundance fitness is at -0.3 or higher; record 0.0 when lower.

| BIOPOLYMER_SEQUENCE | CLASS_NAME |
| --- | --- |
| QGEKVEGLQAQALYPWRAKKDNHLNFNKNDVITVLEQQHMWWFGEVQGQKGWFPKSYVKLISG | 0.0 |
| QGEKVEGLQAQALYPWRAKKDNHLNFNKNDVITVLEQQDMWWFGEVQGQKGWFVKSYVKLISG | 0.0 |
| QGEKVEGLQAQALYPWRAKKDNHLNFNENDVITVLEQQDMWWFGEVQGQKGWFPKSYVKLISG | 1.0 |
| QGEKVEGLQAQALYPWRAKKDNHLNFNKNDVITVLEQQDMWWCGEVQGQKGWFPKSYVKLISG | 0.0 |
| QGEKVEGLQAQALYPKRAKKDNHLNFNKNDVITVLEQQDMWWFGEVQGQKGWFPKSYVKLISG | 0.0 |
| QGEKVEGLQAQALYPWRAKKDNHLNFNKNDVITVLEQQDMWWFGEVQGQFGWFPKSYVKLISG | 1.0 |
| QGEKVEGLQAQALYPWRAKKDNHLNFNKNDVITVLVQQDMWWFGEVQGQKGWFPKSYVKLISG | 1.0 |
| QGEKVLGLQAQALYPWRAKKDNHLNFNKNDVITVLEQQDMWWFGEVQGQKGWFPKSYVKLISG | 1.0 |
| QGEKVEGLQAQALYPWRAKKDNHLNFNKNDVITVLEQQDMWWFGEVQGQKDWFPKSYVKLISG | 0.0 |
| QGEKVEGLQAQALYPWRAKKDNHLNFNKNDVITVLYQQDMWWFGEVQGQKGWFPKSYVKLISG | 1.0 |
| QGEKVEGLQAQALYPWRAKKDNHLNFNKNDVITVLEQQDMWWFGEVQAQKGWFPKSYVKLISG | 1.0 |
| QGEKVEGLQAQALYPWRAKKDNHLNFNINDVITVLEQQDMWWFGEVQGQKGWFPKSYVKLISG | 0.0 |
| QGEKVEGLQAQALYPWRAKKDNHLNFNKLDVITVLEQQDMWWFGEVQGQKGWFPKSYVKLISG | 1.0 |
| QGEKVEGLQAQALYPWRAKKRNHLNFNKNDVITVLEQQDMWWFGEVQGQKGWFPKSYVKLISG | 1.0 |
| QGEKVEGLQAQALYPWRAKKDNHLNFNKNDVITVFEQQDMWWFGEVQGQKGWFPKSYVKLISG | 1.0 |
| QGEKVEGLMAQALYPWRAKKDNHLNFNKNDVITVLEQQDMWWFGEVQGQKGWFPKSYVKLISG | 1.0 |
| QGEKVEGLQAQALYPWRAKKDNHLNFNKNGVITVLEQQDMWWFGEVQGQKGWFPKSYVKLISG | 0.0 |
| QGEKVEGLQAQALYPWRAKKDNHLNFNKNDVITVLEQQDMWWFGEVQGQKGWFPKLYVKLISG | 1.0 |
| QGEKVEGLQAQALYPWRAKKDNHLNFNKNDVITVLEQQDMWWFGEVQGQKGWFPKSYVKLTSG | 1.0 |
| QGEKVEGLQAQALYPWRAKKDNHLNFNKNDVITVLEQQDMWWFGEVQGQKGWFPKSYVKLICG | 1.0 |
| QGEKVEGLQAQALYPWRAKKDNHLNFMKNDVITVLEQQDMWWFGEVQGQKGWFPKSYVKLISG | 1.0 |
| QGEKVEGLQAQALYPWRAKKDNHLNFNKNDVITVLEQQDMWWFGEVQFQKGWFPKSYVKLISG | 0.0 |
| QGEKVEGLQAQALYPWRAIKDNHLNFNKNDVITVLEQQDMWWFGEVQGQKGWFPKSYVKLISG | 1.0 |
| QGEKVEGLQAQALYPWRAKKDNHLNFNKNDVITLLEQQDMWWFGEVQGQKGWFPKSYVKLISG | 0.0 |
| QGEKVEGLQAQALYPWRAKKDNHLNFNKNDVITVLEQQDMWWFGEVQGRKGWFPKSYVKLISG | 1.0 |
| QGEKVEGLQAQALYPWRAKKDNHLNFNKNDVITVLEQQDMCWFGEVQGQKGWFPKSYVKLISG | 0.0 |
| QGEKVEGMQAQALYPWRAKKDNHLNFNKNDVITVLEQQDMWWFGEVQGQKGWFPKSYVKLISG | 1.0 |
| QGEKVEGLQAQALYPWRAKKDNHLNFNKNDVITVLEQQFMWWFGEVQGQKGWFPKSYVKLISG | 0.0 |
| QGEKVEGLQAQALYPWRAKKDNHLNFNKNDVIMVLEQQDMWWFGEVQGQKGWFPKSYVKLISG | 1.0 |
| QGEKVEGLLAQALYPWRAKKDNHLNFNKNDVITVLEQQDMWWFGEVQGQKGWFPKSYVKLISG | 1.0 |
| QGEKVEGPQAQALYPWRAKKDNHLNFNKNDVITVLEQQDMWWFGEVQGQKGWFPKSYVKLISG | 0.0 |
| QGEKVEGLQAQALYPWRAKKDNHLNFNKNDVITVLTQQDMWWFGEVQGQKGWFPKSYVKLISG | 1.0 |
| QGEKVEGLQAQALYPWRAKKDNHLNFNKNDVITVLEQQDMWWFGEQQGQKGWFPKSYVKLISG | 1.0 |
| QGEKVEGLQAQALYPWRAKKDNHLNFNKNDVITVLEQQDMWWFGEVQGQKGMFPKSYVKLISG | 0.0 |
| QGEKVEGLQAQALYPMRAKKDNHLNFNKNDVITVLEQQDMWWFGEVQGQKGWFPKSYVKLISG | 1.0 |
| QGEKVSGLQAQALYPWRAKKDNHLNFNKNDVITVLEQQDMWWFGEVQGQKGWFPKSYVKLISG | 1.0 |
| QGEKVEGLQAQALYPWRAKKDNHLNFNKNDVITVLEQQDMWWFGEVQGSKGWFPKSYVKLISG | 1.0 |
| QGEKVEGLQAQALYPWRAKKDNHLNFNKNDVITILEQQDMWWFGEVQGQKGWFPKSYVKLISG | 1.0 |
| QGEKVEGLQAQALYPWRAKKDNHLNFNKNDVITVLEQQDMWWFWEVQGQKGWFPKSYVKLISG | 0.0 |
| QGEKVEGLQAQALYMWRAKKDNHLNFNKNDVITVLEQQDMWWFGEVQGQKGWFPKSYVKLISG | 1.0 |
| QGEKVEGLQAQALYAWRAKKDNHLNFNKNDVITVLEQQDMWWFGEVQGQKGWFPKSYVKLISG | 1.0 |
| QGEKVEGLQAQALYPWRAKKDNHLNFNKNDVITVLEQQDMWWFGEVQGQKSWFPKSYVKLISG | 0.0 |
| QGEKVMGLQAQALYPWRAKKDNHLNFNKNDVITVLEQQDMWWFGEVQGQKGWFPKSYVKLISG | 1.0 |
| QGEKVEGLQAQALYPWRAKKDNHLNFKKNDVITVLEQQDMWWFGEVQGQKGWFPKSYVKLISG | 1.0 |
| QGEKVEGLQAQALYPWRAKKDNHLNFNKNDVITVLEQQDMTWFGEVQGQKGWFPKSYVKLISG | 0.0 |
| QGEKVEGLQAQALYPWRAKKDNHLNFNKNDVITVLEQQDMWWFGEVQGQKGWFPKSYVKSISG | 1.0 |
| QGEKVEGRQAQALYPWRAKKDNHLNFNKNDVITVLEQQDMWWFGEVQGQKGWFPKSYVKLISG | 1.0 |
| QGEKVEGLQAQALYPWRAKKDNHLWFNKNDVITVLEQQDMWWFGEVQGQKGWFPKSYVKLISG | 0.0 |
| QGEKVEGLQAQALYPWRAKKDNHLNFNKTDVITVLEQQDMWWFGEVQGQKGWFPKSYVKLISG | 0.0 |
| QGEKVEGLQAQALYPWRAKKDNSLNFNKNDVITVLEQQDMWWFGEVQGQKGWFPKSYVKLISG | 0.0 |
| QGEKVEGLQAQALYPWRAKKDNHLNFNKNDVITVLEQFDMWWFGEVQGQKGWFPKSYVKLISG | 0.0 |
| QGEKVEGLQAQALYPWRAKKDNHLNFNKNDVITVLEQQDMWWFGEVQGQKGWFPKSEVKLISG | 1.0 |
| QGEKMEGLQAQALYPWRAKKDNHLNFNKNDVITVLEQQDMWWFGEVQGQKGWFPKSYVKLISG | 1.0 |
| QGEKVEGLQAQALYPWRAKKDNHLNFNKNDVITVLEQQDMWWFGEVQGQKGWFPKSYVKLIIG | 1.0 |
| QGEKVEGLQAQALYCWRAKKDNHLNFNKNDVITVLEQQDMWWFGEVQGQKGWFPKSYVKLISG | 1.0 |
| QGEKVEGLQAQALYPWRAKKDNHLNFNKNDVITVLEQQDMWWFGEVQGQKGWFPKSYCKLISG | 1.0 |
| QGEKVEGLQAQALYPWRAKKDNHLNFNKNDVITVLEQQDMWWFGEVQGQKGWFPKSYVHLISG | 1.0 |
